experiment: Pharmacokinetic studies in vivo (single compound); set-up: species or system CD-1 male mice; conditions: male, mouse, plasma; oral, 2.5 mg/kg, CD-1 mice
ATTRIBUTE MEASURED: half-life (h)
# number only, unit h dropped from output

Enquiry: Suppose we examine the compound Cc1cc(Oc2ccnc(Nc3cccc(C(N)=O)c3)c2)n(C2CCOCC2)n1 ; what half-life value has been reported?
Return: 1.15

* * *

assay: Pharmacokinetic studies in vivo (single compound); design: species or system CD-1 male mice; details: male, mouse, plasma, iv; injection, 1 mg/kg, CD-1 mice
Entries annotated with measured AUC(0-t)
Note: unit µM·h is implicit; provide only the numeric part.

[
  {
    "COMPOUND": "Cc1cc(Oc2ccnc(Nc3cccc(C(N)=O)c3)c2)n(C2CCOCC2)n1 [Compound 14]",
    "AUC(0-t) [µM·h]": 1.34
  }
]

Now for a further compound.
Enquiry: Using the record for Cc1cccc(-c2nn3c(c2-c2ccnc4ccc(C(N)=O)cc24)CCC3)n1 [Compound A, Galunisertib, reference compound] , report its AUC(0-t).
Return: 0.814

* * *

assay: Pharmacokinetic studies in vivo (single compound); set-up: species or system CD-1 male mice; settings: male, mouse, plasma, iv; injection, 1 mg/kg, CD-1 mice
ATTRIBUTE MEASURED: half-life (min)
State just the number; it will be interpreted in min.

[
  {
    "MOLECULE": "Cc1cc(Oc2ccnc(Nc3cccc(C(N)=O)c3)c2)n(C2CCOCC2)n1 [Compound 14]",
    "UNIT LABEL": "min",
    "half-life": 70.2
  }
]

Enquiry: // query half-life value for entry Cc1cccc(-c2nn3c(c2-c2ccnc4ccc(C(N)=O)cc24)CCC3)n1 [Compound A, Galunisertib, reference compound]
Return: 27

* * *

test: Pharmacokinetics study of cassette drug administration in vivo; set-up: species or system CD-1 male mice; details: male, mouse, plasma, oral (1.5 mg/kg), CD-1 mice
ATTRIBUTE MEASURED: Tmax (min)
Note: unit min is implicit; provide only the numeric part.

[
  {
    "COMPOUND": "Cc1cc(Oc2ccnc(Nc3cccc(C(N)=O)c3)c2)n(C2CCOCC2)n1 [Compound 14]",
    "Tmax (min)": 15
  }
]

Enquiry: Which Tmax value is on record for Cc1cccc(-n2nc(C)cc2Oc2ccnc(Nc3cccc(C(N)=O)c3)c2)n1 [Compound 6] ?
Return: 15

Enquiry: Here is the next compound: Cc1cccc(-c2nn3c(c2-c2ccnc4ccc(C(N)=O)cc24)CCC3)n1 [Compound A, Galunisertib, reference compound]
Return: 15

* * *

// reported AUC(0-t) for each item listed
test: Pharmacokinetics study of cassette drug administration in vivo; parameters: species or system CD-1 male mice; settings: male, mouse, plasma, oral (1.5 mg/kg), CD-1 mice
Give a bare numeral; the unit µM·h is implied.

Worked examples follow.
[
  {
    "COMPOUND": "Cc1cccc(-n2nc(C)cc2Oc2ccnc(Nc3cccc(C(N)=O)c3)c2)n1",
    "ATTRIBUTE MEASURED": "AUC(0-t)",
    "READING": 1.45
  },
  {
    "COMPOUND": "Cc1cc(Oc2ccnc(Nc3cccc(C(N)=O)c3)c2)n(C2CCOCC2)n1",
    "ATTRIBUTE MEASURED": "AUC(0-t)",
    "READING": 1.16
  }
]

Enquiry: State the recorded AUC(0-t) for this entry: Cc1cccc(-c2nn3c(c2-c2ccnc4ccc(C(N)=O)cc24)CCC3)n1 [Compound A, Galunisertib, reference compound]
Return: 0.586
